target: dopamine D-2 receptor (Rattus norvegicus, UniProt P61169); construct: from tissue; host or cells: homogenized limbic brain tissue; experiment: Dopamine D-2 receptor binding ([3H]-spiroperidol, homogenized limbic brain tissue)
Sequence (P61169 whole entry): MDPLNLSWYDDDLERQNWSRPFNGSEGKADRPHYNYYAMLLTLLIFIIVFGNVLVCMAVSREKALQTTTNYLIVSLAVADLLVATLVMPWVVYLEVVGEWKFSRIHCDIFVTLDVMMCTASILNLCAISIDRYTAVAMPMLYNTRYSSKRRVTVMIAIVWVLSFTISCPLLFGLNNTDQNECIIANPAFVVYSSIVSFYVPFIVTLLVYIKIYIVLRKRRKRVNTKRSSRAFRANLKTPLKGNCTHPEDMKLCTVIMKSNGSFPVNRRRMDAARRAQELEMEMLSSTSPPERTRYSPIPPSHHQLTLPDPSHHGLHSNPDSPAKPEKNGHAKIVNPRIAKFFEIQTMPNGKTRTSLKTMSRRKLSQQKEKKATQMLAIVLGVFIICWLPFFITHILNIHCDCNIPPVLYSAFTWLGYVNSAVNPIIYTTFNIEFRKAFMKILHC
OBSERVATION_TYPE: inhibition at 1 µM (%)

{"MOLECULE": "c1ccc2c(c1)OCC(CNCCCCOc1ccc3c(c1)CCC3)O2 (centres unmarked)", "VALUE_UNIT": "%", "MEAS_VALUE": 97}
{"MOLECULE": "Clc1cncc(N2CCN(CCCOc3ccc4c(c3)CCC4)CC2)n1", "VALUE_UNIT": "%", "MEAS_VALUE": 82}
{"MOLECULE": "c1cnc(N2CCN(CCCOc3ccc4c(c3)CCC4)CC2)nc1", "VALUE_UNIT": "%", "MEAS_VALUE": 85}
{"MOLECULE": "c1ccc2c(c1)OCC(CNCCCOc1ccc3c(c1)CCC3)O2 (centres unmarked)", "VALUE_UNIT": "%", "MEAS_VALUE": 95}
{"MOLECULE": "c1ccc2c(c1)OCC(CNCCOc1ccc3c(c1)CCC3)O2 (centres unmarked)", "VALUE_UNIT": "%", "MEAS_VALUE": 100}
